The measurements presented in this section are drawn from ChEMBL document CHEMBL1201862.

Tested on: RPMI-8226
runDescription: NCI tumour cell line growth inhibition, 48 h
Calls of active or inactive are those of the source. Cut-off read from the data, not from the text of the source: active = GI50 up to about 1.1 µM and inactive = higher.
Hello, when you answer, please use one of the following outcomes: YES (active), NO (inactive)

Example entries and their recorded answers appear below.
CN(C)/C=C/c1c2c(nc3ccccc13)C(=O)c1cccnc1C2=O
NO
CSc1ccc(NC(=S)NN(C)C)cc1
NO
O=C1/C(=C(/Br)I)c2ccccc2-c2ccccc21
NO
NCCCN1CCN(c2ccccc2)CC1
NO

Dear colleague, could you share the recorded outcome for CCOC(=O)C(=O)C(C#N)c1ccc(Cl)cc1 (centres undefined) when you have a moment?
NO

Could you check what this test reported for Cn1c(=O)c2[nH]c(C3CC(=O)CC(c4nc5c([nH]4)c(=O)n(C)c(=O)n5C)N3)nc2n(C)c1=O (centres undefined) ?
NO

State the result this test recorded for CC(C)CCC1(CCN)C(=O)NC(=O)NC1=O .
NO

====

Test system: OVCAR-5
runDescription: NCI tumour cell line growth inhibition, 48 h
The source made the active and inactive calls. No stated cut-off is given here; in the data, active = GI50 up to about 1.1 µM and inactive = higher.
For each of the compounds below, state its GI50.

Please give GI50 for each item listed below.
1. C[C@@H](CC(=O)O)OC1OC(COC(=O)C(C)(C)C)C(OC(=O)C(C)(C)C)C(OC(=O)C(C)(C)C)C1OC(=O)C(C)(C)C (some centres undefined)
2. CC1=C(/C=C/C(C)=C/C=C/C(C)=C/C(=O)OCC2OC(n3cc(F)c(=O)[nH]c3=O)CC2OC(=O)/C=C(C)/C=C/C=C(C)/C=C/C2=C(C)CCCC2(C)C)C(C)(C)CCC1 (centres undefined)
3. O=C(CC1(O)C(=O)Nc2c(Cl)cc(Cl)cc21)c1ccc2ccccc2c1 (centres undefined)
4. CC(C)N(C(=O)c1cccc(C(=O)N(C(C)C)C(C)C)c1)C(C)C

["> 100 µM (inactive)", "> 45.3 µM (inactive)", "16.6 µM (inactive)", "> 100 µM (inactive)"]

====

Tested on: NCI-H460
runDescription: NCI tumour cell line growth inhibition, 48 h
The source made the active and inactive calls. Rule as the data show it: active = GI50 up to about 1.1 µM and inactive = higher.
Kindly supply the reported GI50 values for the records listed here.

Would you please look over these solved cases?
COc1ccc(C(C)Nc2cc(OC)c(OC)c(OC)c2)cc1 (stereo not given)
3.03 µM (inactive)
COc1ccc2sc(-n3nc4ccccc4c3Nc3nc4ccc(OC)cc4s3)nc2c1
2.22 µM (inactive)
Nc1nnc(NC(=O)C2=NS(=O)(=O)c3cc(S(N)(=O)=O)c(Cl)cc3N2)[nH]1
> 100 µM (inactive)
CCOc1cc2c(cc1OC)c[n+](C)c1c3cc(OC)c(OC)cc3ccc21
> 73.6 µM (inactive)

Please look at the following compound next.
Readout GI50 for CC(C)(C)OC(=O)Cn1ncn(NC(=O)Cc2ccccc2)c1=S , test system NCI-H460, was > 10 µM (inactive)

====

System: RXF 393
runDescription: NCI tumour cell line growth inhibition, 48 h
The source made the active and inactive calls. No stated cut-off is given here; in the data, active = GI50 up to about 1.1 µM and inactive = higher.
Please respond with reported GI50 for every item in the list.

O=C(O)c1ccccc1/N=C/c1ccc(N(CCCl)CCCl)cc1
> 48.3 µM (inactive)
Nc1ccn(CC(O)c2cc3ccccc3[nH]2)c(=O)n1 (centres undefined)
> 100 µM (inactive)

Record GI50 for all entries; do not skip any.
1. CC[N+](C)(CC)CC(C)(C)C(=O)/C=C/c1ccc(/C=C/C(=O)C(C)(C)C[N+](C)(CC)CC)cc1
2. O=S(=O)(O)c1cc(S(=O)(=O)O)c2c(/N=N/c3cccc4ccccc34)c(O)ccc2c1

> 100 µM (inactive)
> 100 µM (inactive)

I have 5 compounds here; please give me GI50 for each one.
1. COc1cc2c3cc1Oc1cc(ccc1O)C[C@@H]1c4c(cc(OC)c(O)c4Oc4ccc(cc4)C[C@@H]3N(C)CC2)CC[N+]1(C)C
2. N#CC(C(=N/NC(N)=S)/C(=N/NC(N)=S)C(C#N)c1ccc(Cl)cc1)c1ccc(Cl)cc1 (centres undefined)
3. COc1ccc(Nc2nc3c(N)cc(C(F)(F)F)cc3nc2-c2ccccc2)cc1OC
4. COC1=C(C(=O)OC(C)(C)C)C23CCCCC2(C(C(=O)OC(C)(C)C)=C(OC)C3C(=O)OC(C)(C)C)C1C(=O)OC(C)(C)C (centres undefined)
5. Cc1ccc(C)c(NC(=O)CCc2n[nH]c(=S)o2)c1

1: 13.6 µM (inactive); 2: 47.3 µM (inactive); 3: 25.7 µM (inactive); 4: 27.6 µM (inactive); 5: > 100 µM (inactive)
